Data provenance: paper PMC7076710

Tested on: COS-1 cells
Assay: LDH assay (necrosis)
Type: cell-based
Conditions: 3 µM
ASSAY ENDPOINT: LDH.3µM

1) CCN(CC)c1ccc(NC(=O)c2c(-c3ccsc3)noc2C)cc1 [Compound 39m] = 0.79
2) CCN(CC)c1ccc(NC(=O)c2c(-c3cccc([N+](=O)[O-])c3)noc2C)cc1 [Compound 39g] = 1.19
3) CCN(CC)c1ccc(NC(=O)c2cnc(SC)n2-c2ccc(F)cc2)cc1 [Compound 47z] = 1.33
4) CCN(c1ccc(NC(=O)c2c(C)noc2-c2ccccc2)cc1)C(C)C = -1.53
5) Cc1onc(-c2ccccc2)c1C(=O)Nc1ccc(C#C[Si](C)(C)C)cc1 = 1.13

----------
Biological target: GATA4–NKX2-5 transcriptional synergy (Mus musculus, UniProt P42582+Q08369)
Construct: expressed in transfected cells; host or cells: COS-1
Sequence (Q08369 whole entry): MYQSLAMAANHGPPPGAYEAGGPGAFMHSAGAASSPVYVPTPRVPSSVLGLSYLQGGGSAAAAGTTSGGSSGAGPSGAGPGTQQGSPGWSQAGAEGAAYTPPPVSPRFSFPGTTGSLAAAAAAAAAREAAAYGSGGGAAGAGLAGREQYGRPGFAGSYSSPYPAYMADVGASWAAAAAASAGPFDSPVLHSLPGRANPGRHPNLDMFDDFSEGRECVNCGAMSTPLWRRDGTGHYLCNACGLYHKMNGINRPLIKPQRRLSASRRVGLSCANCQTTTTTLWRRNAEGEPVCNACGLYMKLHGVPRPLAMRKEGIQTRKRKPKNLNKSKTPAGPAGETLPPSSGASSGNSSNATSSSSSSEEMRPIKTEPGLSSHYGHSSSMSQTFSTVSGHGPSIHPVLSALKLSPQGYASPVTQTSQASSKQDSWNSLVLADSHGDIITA
Sequence (P42582 whole entry): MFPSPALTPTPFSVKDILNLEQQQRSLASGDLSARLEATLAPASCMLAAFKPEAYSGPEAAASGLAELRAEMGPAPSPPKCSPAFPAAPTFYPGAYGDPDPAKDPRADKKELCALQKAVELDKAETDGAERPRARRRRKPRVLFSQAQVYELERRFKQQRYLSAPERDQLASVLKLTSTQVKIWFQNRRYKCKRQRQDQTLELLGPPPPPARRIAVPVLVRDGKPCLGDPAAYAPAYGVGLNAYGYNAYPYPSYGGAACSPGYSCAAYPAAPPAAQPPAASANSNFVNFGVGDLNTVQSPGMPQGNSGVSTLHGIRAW
Test: GATA4–NKX2-5 transcriptional synergy luciferase reporter assay (3xNKE reporter, COS-1 cells)
Assay type: cell-based
Conditions: 3 µM compound; GATA4–NKX2-5 transcriptional synergy reporter, COS-1 cells
ASSAY ENDPOINT: activity at 3 µM (%)

1. Cc1cc(NC(=O)c2cnn(C)c2-c2ccccc2)ccc1C(C)C [SI87] = 88.1
2. CCN(CC)c1ccc(NC(=O)c2c(SC)nsc2SC)cc1 [Compound 47w] = 115
3. CCN(CC)c1ccc(NC(=O)c2ccnc(C(F)(F)F)c2)cc1 [Compound 47ac] = 88.3
4. CCN(CC)c1ccc(NC(=O)c2csc3nnsc23)cc1 [Compound 47v] = 95.9
5. O=C(Nc1ccc2oc(-c3ccccc3)cc(=O)c2c1)c1ncoc1-c1ccccc1 [SI102] = 103

----------
System: COS-1 cells
Test: MTT assay (cell viability)
Type: cell-based
Settings: 10 µM; cell viability
Cut-off 90 on MTT.10µM: below means condition met, at or above means condition not met.

1) CCN(CC)c1ccc(CNc2c(-c3ccccc3)noc2C)cc1 = condition not met
2) CCN(CC)c1ccc(NC(=O)c2cnc(SC)n2-c2ccc(F)cc2)cc1 [Compound 47z] = condition not met
3) CCN(c1ccc(NC(=O)c2c(C)noc2-c2ccccc2)cc1)C(C)C = condition met
4) CCC(OC)c1ccc(OCc2c(-c3ccccc3)noc2C)cc1 (racemic) [Compound 34e] = condition met

----------
Target: GATA4–NKX2-5 transcriptional synergy (Mus musculus, UniProt P42582+Q08369)
Construct: expressed in transfected cells; host or cells: COS-1
Test: GATA4–NKX2-5 transcriptional synergy luciferase reporter assay (3xNKE reporter, COS-1 cells)
Format: cell-based
Details: COS-1; compound at 10 µM; luciferase reporter activity, % of control
Each entry below carries its recorded activity at 10 µM.
ASSAY ENDPOINT: activity at 10 µM (%)

1) Cc1onc(-c2ccccc2)c1NCc1ccc(N(C)C)cc1 = 89.9
2) Cc1onc(-c2ccccc2)c1NC(=O)NC1CCCCC1 = 118
3) CN(C)c1ccc(/C=N/c2c(-c3ccccc3)nc3ncccn23)cc1 = 102
4) Cc1onc(-c2ccccc2)c1C(=O)Nc1nc2ccccc2n1C = 78
5) Cc1onc(-c2ccccc2)c1C(=S)Nc1ccc(OCc2ccccc2)cc1 = 87.4
6) Cc1cc(NC(=O)c2c(-c3cccc([N+](=O)[O-])c3)noc2C)ccc1C(C)C = 91
7) Cc1onc(-c2ccccc2)c1C(=O)N(N)S(=O)(=O)c1ccccc1 = 113
8) CCN(CC)c1ccc(NC(=S)c2c(-c3c(Cl)cccc3Cl)noc2C)cc1 = 70.1
9) Cc1onc(-c2ccccc2)c1NC(=O)Nc1ccc(OC(F)(F)F)cc1 = 68.7
10) CCN(c1ccc(NC(=S)c2c(-c3ccccc3)noc2C)cc1)C(C)C = 112
